Sourced from PubChem BioAssay

What differentiation response was measured for each of the following?
- experimental.details: promoters of myeloid differentiation in arrested cells, primary screen, cell-based, GFP/MAC1 double positive, flow cytometry, validation set (AID 588685);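 note: compound exposure lasts four days before antibody staining and flow analysis; 0% = DMSO wells and 100% = 5 µM fulvestrant positive control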
- experimental.context: ER-HoxA9 marrow cells, stronger effect = higher value, normalized: vehicle 0, fulvestrant 100
Number in %, nothing else.

// field: differentiation response; key: c1cc2c(cc1C1CCCCC1)c1c3n2CCN=C3CCC1 ; value = -9.89

// field: differentiation response; key: COc1ccc2c(c1OC)C(=O)NC(C)=C(C(=O)OC(C)(C)C)C2O (stereo not given) ; value = 56.8

// field: differentiation response; key: CC[C@]1(O)C[C@@H]2CN(CCc3c([nH]c4ccccc34)[C@@](C(=O)OC)(c3cc4c(cc3OC)N(C)[C@H]3[C@@](O)(C(=O)OC)[C@H](OC(C)=O)[C@]5(CC)C=CCN6CC[C@]43[C@@H]65)C2)C1 ; value = 3.03

// field: differentiation response; key: OC[C@H]1O[C@@H](n2cnc3c(Nc4ccccc4)ncnc32)[C@H](O)[C@@H]1O ; value = 2.46

// field: differentiation response; key: O=c1c2ccccc2nnn1Cc1cccc2ccccc12 ; value = -0.82

// field: differentiation response; key: COc1ccc(C(=O)NC(=O)NC2(C(Cl)(Cl)Cl)OCCO2)cc1 ; value = -2.03

// field: differentiation response; key: CC(C)Cn1c(=S)[nH]c2cc(C(=O)O)ccc2c1=O ; value = -26

// field: differentiation response; key: Fc1cc(F)cc(NC(=S)NCCCN2CCOCC2)c1 ; value = 0.92

// field: differentiation response; key: Nc1ncnc2c1ncn2C1OC(CO)C(O)C1O (stereo not given) ; value = -18

// field: differentiation response; key: COc1ccc(CCNC(=S)NC(=O)/C=C/c2ccc(C)cc2)cc1OC ; value = -8.27

---

What GFP response relative to DMSO was measured for each of the following?
- experimental.details: LAP4-GFP expression modulators in yeast, confirmation, cell-based, cherry picks, flow cytometry, mother/daughter gates (AID 2271);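 note: ratio of sample to DMSO plate mean so 100% equals DMSO level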
- experimental.context: S. cerevisiae LAP4-GFP strain, 3 h, measured here: daughter cell gate response, at 10 µM, stronger effect = higher value, 100 means same as DMSO control
Report as: number unit

// field: GFP response relative to DMSO; key: COc1ccccc1N1C(=O)CC(Sc2nccc(C)n2)C1=O (stereo not given) ; value = 95.9%

// field: GFP response relative to DMSO; key: Cc1ccc(N2C(=O)C3C4C=CC(CNC(=S)Nc5ccc(F)cc5)(O4)C3C2=O)cc1 (stereo not given) ; value = 103%

// field: GFP response relative to DMSO; key: CSC1=NC(=O)/C(=C/c2ccc(SC)cc2)S1 ; value = 115%

// field: GFP response relative to DMSO; key: Cc1nn(C)c(C(=O)Sc2cccc(Cl)c2)c1[N+](=O)[O-] ; value = 114%

// field: GFP response relative to DMSO; key: Clc1cccc(Cn2ncc3ccccc32)c1 ; value = 102%

// field: GFP response relative to DMSO; key: Cc1ccccc1N1C(=O)C(Cl)=C(N2CCN(c3ccccc3)CC2)C1=O ; value = 102%

// field: GFP response relative to DMSO; key: Cc1cccc(/C(N)=N/OC(=O)C23CC4CC(CC(C4)C2)C3)c1 ; value = 108%

// field: GFP response relative to DMSO; key: Cc1nnc(N2C(=O)c3cccc4cccc(c34)C2=O)s1 ; value = 94.4%

// field: GFP response relative to DMSO; key: O=C1Nc2ccc(Br)cc2/C1=C/C(=O)c1ccc2c(c1)OCO2 ; value = 117%

// field: GFP response relative to DMSO; key: O=C(c1ccccc1)N1CCN(c2ccccc2F)CC1 ; value = 104%

// field: GFP response relative to DMSO; key: CSc1ccc(/C=C/C(=O)c2ccc(NC(C)=O)cc2)cc1 ; value = 104%

// field: GFP response relative to DMSO; key: CC(C)c1nnc(NC(=O)c2nc(S(=O)(=O)Cc3ccccc3F)ncc2Cl)s1 ; value = 107%

// field: GFP response relative to DMSO; key: O=C1Nc2ccccc2C(=O)C1(Cl)Cc1ccccc1 (stereo not given) ; value = 124%

// field: GFP response relative to DMSO; key: O=C(/C=C/c1ccc(F)cc1)NC(=S)NNC(=O)c1cnccn1 ; value = 146%

// field: GFP response relative to DMSO; key: CC1CCN(S(=O)(=O)c2cccc(C(=O)Nc3nccs3)c2)CC1 ; value = 95.6%

// field: GFP response relative to DMSO; key: O=C(c1ccc(OCC2CCCO2)cc1)N1CCN(c2ccccc2)CC1 (stereo not given) ; value = 102%

// field: GFP response relative to DMSO; key: O=C(Nc1ccc(S(=O)(=O)N2CCOCC2)cc1)c1ccc([N+](=O)[O-])cc1Cl ; value = 94.4%

// field: GFP response relative to DMSO; key: COc1ccc(OC)c(CNC(=O)CCC(=O)N2Cc3cccc(OC)c3Oc3ncccc32)c1 ; value = 94.2%

// field: GFP response relative to DMSO; key: Cc1ccc(N2CCN(C(=O)c3ccccc3Br)CC2)c(C)c1 ; value = 92.8%

// field: GFP response relative to DMSO; key: C/C(=N\NC(=O)c1cc2ccccc2cc1O)c1ccccn1 ; value = 147%

// field: GFP response relative to DMSO; key: CCCN(CCC)S(=O)(=O)c1ccc(C(=O)Nc2nnc(-c3cc(OC)cc(OC)c3)o2)cc1 ; value = 91.2%

// field: GFP response relative to DMSO; key: CC1CN(c2nc3ccccn3c(=O)c2/C=C(\C#N)C(=O)N2CCOCC2)CC(C)O1 (stereo not given) ; value = 97.5%

// field: GFP response relative to DMSO; key: CCOC(=O)c1ccc(NC(=O)CCc2nc(-c3ccc(Cl)cc3)no2)cc1 ; value = 99.2%

// field: GFP response relative to DMSO; key: CN(C)c1ccc(N=Cc2nc(-c3ccccc3)oc2OC(=O)c2cccc(Br)c2)cc1 ; value = 84.2%

// field: GFP response relative to DMSO; key: O=C1c2cccc3cccc(c23)C(=O)N1c1ccncc1 ; value = 85%

// field: GFP response relative to DMSO; key: Cc1ccc(NC(=O)c2ccccc2O)cc1 ; value = 95%

// field: GFP response relative to DMSO; key: COc1ccccc1CNc1nc(S(=O)(=O)c2ccccc2)c(Cl)s1 ; value = 104%

// field: GFP response relative to DMSO; key: Cc1ccc(C(=O)NNC(=S)NC(=O)c2ccco2)cc1 ; value = 117%

// field: GFP response relative to DMSO; key: O=C(N/N=C/c1ccc(OCCCF)cc1)c1cc(OCC(F)(F)F)ccc1OCC(F)(F)F ; value = 98.7%

// field: GFP response relative to DMSO; key: COc1ccc(NC2=C(Cl)C(=O)N(CCc3ccccc3)C2=O)cc1 ; value = 99.3%

// field: GFP response relative to DMSO; key: COc1ccc(CCNC2=C(Cl)C(=O)N(CCc3ccc(OC)c(OC)c3)C2=O)cc1OC ; value = 99.3%

// field: GFP response relative to DMSO; key: Cc1ccc(C(=O)O/N=C(\N)Cc2cccs2)c(Cl)c1 ; value = 114%

// field: GFP response relative to DMSO; key: O/C=c1\ccc2cccc3nc(C(F)(F)F)nc1c23 ; value = 167%

// field: GFP response relative to DMSO; key: CCC(=O)Nc1ccc(NC(=O)c2oc3ccccc3c2C)cc1 ; value = 100%

// field: GFP response relative to DMSO; key: CCCCn1c(-c2csc3c2CCCC3)n[nH]c1=S ; value = 117%

// field: GFP response relative to DMSO; key: C/C(CCC12CC3CC(CC(C3)C1)C2)=N\NC(N)=S ; value = 125%

// field: GFP response relative to DMSO; key: COc1cccc(NC(=O)/C=C/c2ccc([N+](=O)[O-])cc2)c1 ; value = 101%

// field: GFP response relative to DMSO; key: O=c1c2ccccc2nc(-c2ccccc2)n1CCN1CCOCC1 ; value = 97.5%

// field: GFP response relative to DMSO; key: CCOc1ccc(-c2noc(-c3cccnc3)n2)cc1OC ; value = 99.2%

// field: GFP response relative to DMSO; key: COc1cc(/C=C2\C(=O)ON=C2c2ccccc2)cc(Br)c1O ; value = 113%

// field: GFP response relative to DMSO; key: C=CCOc1cccc(C(=O)/C=C2/C(=O)Nc3ccccc32)c1 ; value = 107%

// field: GFP response relative to DMSO; key: COCCNC(=O)c1ccc(Cl)c(Cl)c1 ; value = 101%

// field: GFP response relative to DMSO; key: Cc1ccc(S(=O)(=O)Cc2cc(F)c([N+](=O)[O-])cc2[N+](=O)[O-])cc1 ; value = 146%

// field: GFP response relative to DMSO; key: COc1cc(C(O)P(=O)(OCC(C)C)OCC(C)C)cc(OC)c1OC (stereo not given) ; value = 102%

// field: GFP response relative to DMSO; key: O=C(COC(=O)c1cccs1)Nc1nc(-c2ccccc2)cs1 ; value = 99.2%
